Provide the recorded EC50 for the entries that follow.
target: ERRγ (Homo sapiens); assay: ERRE luciferase reporter assay in HEK293 cells transfected with pcDNA3.1 ERRγ; conditions: HEK293 cells transfected with ERRE reporter construct and pcDNA3.1 ERRγ; compound for 24 hours; luciferase activity
Sequence (P62508 whole entry): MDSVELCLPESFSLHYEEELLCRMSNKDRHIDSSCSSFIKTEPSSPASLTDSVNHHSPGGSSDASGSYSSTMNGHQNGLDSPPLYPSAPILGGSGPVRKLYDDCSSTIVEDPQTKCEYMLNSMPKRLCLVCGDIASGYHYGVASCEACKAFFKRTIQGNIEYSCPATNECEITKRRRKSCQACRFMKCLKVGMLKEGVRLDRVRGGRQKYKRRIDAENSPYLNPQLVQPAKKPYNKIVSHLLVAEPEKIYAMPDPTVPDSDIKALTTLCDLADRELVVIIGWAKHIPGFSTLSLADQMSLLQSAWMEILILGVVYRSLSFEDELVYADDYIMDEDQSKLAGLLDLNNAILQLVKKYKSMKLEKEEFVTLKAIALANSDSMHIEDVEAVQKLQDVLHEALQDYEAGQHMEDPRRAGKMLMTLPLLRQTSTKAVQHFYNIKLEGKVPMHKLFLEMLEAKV

[[record]]
compound = "COc1ccc(-c2nnc(-c3cccc(OC)c3)o2)cc1 [Entry 29]"
measurement_type = "EC50"
result_value = "< 1000 nM"

[[record]]
compound = "COc1ccc(-c2nnc(-c3ccc(C(F)(F)F)cc3)s2)cn1 [Entry 1071]"
measurement_type = "EC50"
result_value = "1000 to 5000 nM"


Now for the compound whose EC50 we want.
[ask] Need EC50 of COc1ccc(-c2nnc(-c3ccccc3)s2)c([N+](=O)[O-])c1 [Entry 1036] , thanks.
[reply] < 1000 nM
